B1: Tudor domain-containing protein 3, residues 554 to 611; numbered along this chain, Q9H7E2 (parent)
chain: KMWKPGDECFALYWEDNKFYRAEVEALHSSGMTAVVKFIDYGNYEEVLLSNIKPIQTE

variants of: B1; experiment: abundance fitness (aPCA) (normalised: wild type 0, dead -1); higher = more abundant; growth selection in yeast, the domain comes from the species named; conditions: Homo sapiens
metric: abundance fitness
Just the number, please.

Note to self: abundance fitness recorded for `F10L` was 0.084

Noted for `F38W` : its abundance fitness reads -0.416

Per the records, this variant ( `Y41H` ) has abundance fitness equal to 0.028

The measured abundance fitness associated with `K53W` reads -0.242

Noted for `Y20P` : its abundance fitness reads -0.918

Given item `K18Q` , the value recorded as its abundance fitness is -0.144

// recorded abundance fitness for `Y44M` : 0.09

Sure, the documented abundance fitness for `Y44D` is -0.468

For record `T57D` the listed abundance fitness is 0.083

Record summary for `G42C` : reported abundance fitness = -0.315

Measured abundance fitness of `T57S` : 0.021

Record `N43D` , field abundance fitness: -0.259

// abundance fitness lookup, variant = `V24A` , result: -0.939

Lookup result for `V47L` ; measured abundance fitness: -0.433

`R21G` yielded abundance fitness of -0.978

Entry `A22E` ; abundance fitness = -1.04

Summary for this variant, `T57K` : abundance fitness is -0.047

Entry under test: `Y20A` . Its abundance fitness was -0.228

Just so you know, measured abundance fitness for `W14K` came out at 0.166

Entry under test: `I39L` . Its abundance fitness was -0.05

Entry under test: `E23I` . Its abundance fitness was 0.143

Record summary for `F38P` : reported abundance fitness = -0.941

Entry `I55D` ; abundance fitness = -0.415

Per the record, `P54D` has abundance fitness of -0.229

Measured abundance fitness of `V47S` : -0.926

`S30N` has a reported abundance fitness of -0.04

# abundance fitness of `P54T` = -0.125

Lab book: abundance fitness of `I52Y` noted as -0.923

Per the record, `W3S` has abundance fitness of -0.885

abundance fitness recorded for this variant, `S30M` , is -0.282
